- procedure-details: In vivo pharmacokinetic evaluation in mice
- setup-conditions: mouse, plasma; ICR mice, iv, dose 0.5 mg/kg; read-out: MRT(0-24)
quantity-name: MRT last (h)

{"compound": "[2H]C([2H])([2H])N1C(=O)C2(CC2)c2cc(-n3ccn(-c4c5c(nn4-c4cc(C)c(F)c(C)c4)CCN(C(=O)c4cc6cc([C@H]7CCOC(C)(C)C7)ccc6n4[C@@]4(c6noc(=O)[nH]6)C[C@@H]4C)[C@H]5C)c3=O)ccc21 [Compound 2]", "endpoint-unit": "h", "MRT last": 5.13}
{"compound": "Cc1cc(-n2nc3c(c2-n2ccn(-c4ccc5c(c4)N(C)C(=O)C54CC4)c2=O)[C@H](C)N(C(=O)c2cc4cc(C5CCOC(C)(C)C5)ccc4n2[C@@]2(c4noc(=O)[nH]4)C[C@@H]2C)CC3)cc(C)c1F (single isomer, unassigned) [Compound 5]", "endpoint-unit": "h", "MRT last": 5.16}
